Taken from ChEMBL document CHEMBL1132777.

Molecular target: Serine protease 1 (Homo sapiens, UniProt P07477)
Sequence (P07477 whole entry): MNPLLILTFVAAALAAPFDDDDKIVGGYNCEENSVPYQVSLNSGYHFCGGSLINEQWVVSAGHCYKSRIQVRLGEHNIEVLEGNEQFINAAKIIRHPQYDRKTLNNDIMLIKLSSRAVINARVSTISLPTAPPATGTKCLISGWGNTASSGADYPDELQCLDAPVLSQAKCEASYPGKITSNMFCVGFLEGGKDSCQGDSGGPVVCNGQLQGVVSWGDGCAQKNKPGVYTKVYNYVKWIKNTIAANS
Experiment: In vitro inhibitory activity against Human trypsin
observation.type: IC50

The examples below pair each entry with its known result.
CN(CC(=O)N[C@@H](CC1CCCCC1)C(=O)C(=O)NCc1ccccc1)C(=O)[C@@H](CCCN=C(N)N)NS(=O)(=O)Cc1ccccc1 | 2.5 µM
CN(CC(=O)N[C@@H](CC1CCCCC1)C(=O)C(=O)NCCc1ccccc1)C(=O)[C@@H](CCCN=C(N)N)NS(=O)(=O)Cc1ccccc1 | > 2.5 µM
CCCCCNC(=O)C(=O)[C@H](CC1CCCCC1)NC(=O)CN(C)C(=O)[C@@H](CCCN=C(N)N)NS(=O)(=O)Cc1ccccc1 | 0.163 µM
CCOC(=O)CNC(=O)C(=O)[C@H](Cc1ccccc1)NC(=O)CN(C)C(=O)[C@@H](CCCN=C(N)N)NS(=O)(=O)Cc1ccccc1 | > 2.5 µM

For the next question, use this compound.
*Q* What does the data say about its IC50? Entry: CN(CC(=O)N[C@H]1CCCC(C(=N)N)C1O)C(=O)[C@@H](CCCN=C(N)N)NS(=O)(=O)Cc1ccccc1 (stereo not given in full)
*A* 0.0747 µM
